The measured values listed here are drawn from the supplement of paper PMC10338343.

Tested on: MILI (PIWIL2) piRISC loaded with piRNA #1 (26 nt);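 further: 1 nM active piRISC with 0.1 nM target library at 33 °C single turnover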
Assay: pre-steady-state target cleavage rate (min^-1); guide: piRNA #1 5'p-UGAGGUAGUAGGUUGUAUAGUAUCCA; higher = faster piRNA-guided slicing of the target
Details: auxiliary factor: 500 nM mouse GTSF1
Please provide measured pre-steady-state target cleavage rate for the entries that follow.
Give the value as a plain number.

Input: Look at this sequence and give its reported pre-steady-state target cleavage rate. GGAGACCUAUGAUAUCAAGCUACUACCUGA
Output: 0.00472

Input: Look at this sequence and give its reported pre-steady-state target cleavage rate. GGAGACCUAUGUAUUCAUCCUACUACCUCA
Output: 0.0771

Input: Look at this sequence and give its reported pre-steady-state target cleavage rate. GGAGACCUUACUAUACAACCUACUACCCA
Output: 0.0955

Input: Look at this sequence and give its reported pre-steady-state target cleavage rate. GGAGACCUAUCUAUACAAGCUAGUACCUCA
Output: 0.107

Input: Look at this sequence and give its reported pre-steady-state target cleavage rate. GGAGACCUAUGUAUUCAACCUACUACCUCA
Output: 0.0588

Input: Look at this sequence and give its reported pre-steady-state target cleavage rate. GGAGACCUAUGAUAACAACCUACUAUCCUCA
Output: 0.00426

Input: Look at this sequence and give its reported pre-steady-state target cleavage rate. GGAGACCUAUGUAUACAACCUACUACCUGCA
Output: 0.0635

Input: Look at this sequence and give its reported pre-steady-state target cleavage rate. GGAGACCUAUCUUUACAACCUUCUACCUCA
Output: 0.00489

Input: Look at this sequence and give its reported pre-steady-state target cleavage rate. GGAGACCUUAGUAUAGAACCUACUACCUCA
Output: 0.0876

Input: Look at this sequence and give its reported pre-steady-state target cleavage rate. GGAGACCUUACUAUACAAGCUUCUACCUCA
Output: 0.036

Input: Look at this sequence and give its reported pre-steady-state target cleavage rate. GGAGACCUAUCUAUACAACCUUCUACCACA
Output: 0.00592

Input: Look at this sequence and give its reported pre-steady-state target cleavage rate. GGAGACGAUACUAUACAACCAAGUACCUCA
Output: 0.00441

====

Please provide measured pre-steady-state target cleavage rate for the entries that follow.
Test system: MILI (PIWIL2) piRISC loaded with L1MC piRNA (26 nt);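 further: 1 nM active piRISC with 0.1 nM target library at 33 °C single turnover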
Assay: pre-steady-state target cleavage rate (min^-1); guide: L1MC piRNA 5'p-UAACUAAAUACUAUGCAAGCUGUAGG; MIWI and MILI are mouse PIWI proteins and EfPiwi is from a freshwater sponge; tags in brackets are library labels; higher = faster piRNA-guided slicing of the target
Settings: auxiliary factor: none (no GTSF1)
Give the value as a plain number.

Input: Look at this sequence and give its reported pre-steady-state target cleavage rate. UCCUGCUACAGCUUGCAUUGUAUUUAGUUA
Output: 0.0081

Input: Look at this sequence and give its reported pre-steady-state target cleavage rate. UCCUGGUACGGCUUGCAUAGUAUUUAGUUA
Output: 0.0133

Input: Look at this sequence and give its reported pre-steady-state target cleavage rate. UCCUGCAUGAGCUUGCAUAGUAUUUAGUAA
Output: 0.00554

Input: Look at this sequence and give its reported pre-steady-state target cleavage rate. UCCUCCUACAGCUUCCUUAGUAUUUAGUUA
Output: 0.00443

Input: Look at this sequence and give its reported pre-steady-state target cleavage rate. UCCUGGAACAGUCUUGCAUAGUAUUUAGUUA
Output: 0.00993

Input: Look at this sequence and give its reported pre-steady-state target cleavage rate. UCCUCCUUGAGCUUGCAUAGUAUUUAGUUA
Output: 0.0051

Input: Look at this sequence and give its reported pre-steady-state target cleavage rate. UCCUGGUACAGCUUGCUUAGUAUUUAGUAA
Output: 0.00308

Input: Look at this sequence and give its reported pre-steady-state target cleavage rate. UCCUGCUACUGCUUGCUUAGUAUUUAGUUA
Output: 0.00589

Input: Look at this sequence and give its reported pre-steady-state target cleavage rate. UCCUGGAUGAGCUACCAUAGUAUUUAGUUA
Output: 0.00301

Input: Look at this sequence and give its reported pre-steady-state target cleavage rate. UCCUGGAUCAGCUUGCAUAGUUAUUUAGUUA
Output: 0.00454

Input: Look at this sequence and give its reported pre-steady-state target cleavage rate. UCCUGGUACAGCUAGCAUUGUAUUUAGUUA
Output: 0.00717

Input: Look at this sequence and give its reported pre-steady-state target cleavage rate. UCCUGGAUGUCCUUGGAUAGUUUUUAGUUA
Output: 0.00344

Input: Look at this sequence and give its reported pre-steady-state target cleavage rate. UCCUGCAUCAGCUUGCAUAGUAUUUAGUUA
Output: 0.00843

Input: Look at this sequence and give its reported pre-steady-state target cleavage rate. UCCUCCUACAGCUUGCAAGUAUUUAGUUA
Output: 0.00449

Input: Look at this sequence and give its reported pre-steady-state target cleavage rate. UCCUGGAUGUCGAAGCAUAGUAUUUUGUUA
Output: 0.00241

Input: Look at this sequence and give its reported pre-steady-state target cleavage rate. UCCUGGAUGUCCUUGCUUAGUAUAUAGUUA
Output: 0.0039

Input: Look at this sequence and give its reported pre-steady-state target cleavage rate. UCCUGCUACAGCUUGCAUUGUAUAUAGUUA
Output: 0.00483

Input: Look at this sequence and give its reported pre-steady-state target cleavage rate. UCCUGGAUGAGGCUUGCAUAGUAUUUAGUUA
Output: 0.0125

Input: Look at this sequence and give its reported pre-steady-state target cleavage rate. UCCUGGUACAGCUUGCAUAGUAUUUAGUUU [g2:g24:cont:t1U]
Output: 0.0218

Input: Look at this sequence and give its reported pre-steady-state target cleavage rate. UCCUGGUACAGCUUGCAGAGUAUUUAGUUA
Output: 0.00836

Input: Look at this sequence and give its reported pre-steady-state target cleavage rate. UCCUGCUACUGCUUGCAUAGUAUUUAGUUA
Output: 0.00705

Input: Look at this sequence and give its reported pre-steady-state target cleavage rate. UCCUGGAUGAGCUAGCAUUGUAUUUAGUUA
Output: 0.00446

Input: Look at this sequence and give its reported pre-steady-state target cleavage rate. UCCUGGAUGUGGAAGCAUAGUAUUUAGUAA
Output: 0.00424

Input: Look at this sequence and give its reported pre-steady-state target cleavage rate. UCCUGGAUCUCCUUGCAUAGUAUUUAGUAA
Output: 0.00367

Input: Look at this sequence and give its reported pre-steady-state target cleavage rate. UCCUGCUACAGGUUGCAUAGUAAUUAGUUA
Output: 0.00697

Input: Look at this sequence and give its reported pre-steady-state target cleavage rate. UCCUCCUACAGCUUGGAUAGUAUUUAGUUA
Output: 0.0109

Input: Look at this sequence and give its reported pre-steady-state target cleavage rate. UCCUGGAUCAGCUUGCAAAGUAUUUAGAUA
Output: 0.00353

Input: Look at this sequence and give its reported pre-steady-state target cleavage rate. UCCUCCUACACGAUGCAUAGUAUUUAGUUA
Output: 0.00666

Input: Look at this sequence and give its reported pre-steady-state target cleavage rate. UCCUGGAUCAGCAAGCAUAGUAUUUAGUUA
Output: 0.00449

Input: Look at this sequence and give its reported pre-steady-state target cleavage rate. UCCUGGAUCAGCUUGCAUAAUAUUUAGUUA
Output: 0.00396

Input: Look at this sequence and give its reported pre-steady-state target cleavage rate. UCCUCCUACAGCUUGUCAUAGUAUUUAGUUA
Output: 0.00407

Input: Look at this sequence and give its reported pre-steady-state target cleavage rate. UCCUGCUACAGCUUGCGUAGUAUUUAGUUA
Output: 0.00688

Input: Look at this sequence and give its reported pre-steady-state target cleavage rate. UCCUGGAUCAGCUUGCAGAGUAUUUAGUUA
Output: 0.00641

Input: Look at this sequence and give its reported pre-steady-state target cleavage rate. UCCUGGAUGUCCUGGCAUAGUAUUUAGUUA
Output: 0.00414

Input: Look at this sequence and give its reported pre-steady-state target cleavage rate. UCCUGGAUGAGGUUGCUUAGUAUUUAGUUA
Output: 0.0107

Input: Look at this sequence and give its reported pre-steady-state target cleavage rate. UCCUGGAUGUCCUUAGCAUAGUAUUUAGUUA
Output: 0.00307

Input: Look at this sequence and give its reported pre-steady-state target cleavage rate. UCCUGGAACAGCGUGCAUAGUAUUUAGUUA
Output: 0.00797

Input: Look at this sequence and give its reported pre-steady-state target cleavage rate. UCCUGGAUGACCUUGCAUAGUAUUAAGUUA
Output: 0.00338

Input: Look at this sequence and give its reported pre-steady-state target cleavage rate. UCCUGGAACAGCUUGGAUAGUAUAUAGUUA
Output: 0.00403

Input: Look at this sequence and give its reported pre-steady-state target cleavage rate. UCCUGGAUCAGCUAGCAAAGUAUUUAGUUA
Output: 0.00566

Input: Look at this sequence and give its reported pre-steady-state target cleavage rate. UCCUCCAACAGGUUGCAUAGUAUUUAGUUA
Output: 0.00862

Input: Look at this sequence and give its reported pre-steady-state target cleavage rate. UCCUGGAUGAGGUUGCAUAGUAUAUAGUUA
Output: 0.00623

Input: Look at this sequence and give its reported pre-steady-state target cleavage rate. UCCUGGUACAGCUUGCAAAGUAAUUAGUUA
Output: 0.00414

Input: Look at this sequence and give its reported pre-steady-state target cleavage rate. UCCUCCUACUGCUUGCAUAGUAUAUAGUUA
Output: 0.00372

Input: Look at this sequence and give its reported pre-steady-state target cleavage rate. UCCUGGAUGUCGAAGGCAUAGUAUUUAGUUA
Output: 0.00443

Input: Look at this sequence and give its reported pre-steady-state target cleavage rate. UCCUGGUUCAGCUUGCAUAGUUUUUAGUUA
Output: 0.0081

Input: Look at this sequence and give its reported pre-steady-state target cleavage rate. UCCUGGAUGUCGUUGCAUAGUACUUUAGUUA
Output: 0.00645

Input: Look at this sequence and give its reported pre-steady-state target cleavage rate. UCCUGGUACAGCUUGGAUAGUUUUUAGUUA
Output: 0.00594

Input: Look at this sequence and give its reported pre-steady-state target cleavage rate. UCCUGGAACAGCUAGCAUAGUAUUAAGUUA
Output: 0.00356

Input: Look at this sequence and give its reported pre-steady-state target cleavage rate. UCCUGGAUGUGCUUGGUUAGUAUUUAGUAA
Output: 0.0127

Input: Look at this sequence and give its reported pre-steady-state target cleavage rate. UCCUGGAUGUCCUUGCAUAGAUAUUUAGUUA
Output: 0.00426

Input: Look at this sequence and give its reported pre-steady-state target cleavage rate. UCCUGGAUGUCGAUGCAUAGUAUAUUAGUUA
Output: 0.00716

Input: Look at this sequence and give its reported pre-steady-state target cleavage rate. UCCUGCUACAGCUCGCAUAGUAUUUAGUUA
Output: 0.00757
